- Tested on: 786-0 renal
- experimentNotes: NCI-60 one-dose screen, 48 h
- testConditions: 10 µM
This is part of a sample that, as a whole, favours compounds with a hit. Of some 83,000 tested, about 20% had one in any assay. Active and inactive are the calls of the source. Rule for the calls: active = growth percent below 10; inactive = the rest.
Possible outcomes: active, inactive

{"compound": "COc1ccc(NCc2cn(-c3ccc(C(=O)O)cc3)nc2-c2ccc(F)cc2)cc1C(F)(F)F", "classAssignment": "inactive"}
{"compound": "Cc1cc(N=C2NC(=O)S/C2=C\\c2ccc(F)cc2)n[nH]1", "classAssignment": "inactive"}
{"compound": "O=C(CSc1nc2ccccc2c(=O)n1-c1ccc(Cl)cc1)Nc1ccc(-c2nc3ccc([N+](=O)[O-])cc3[nH]2)cc1", "classAssignment": "inactive"}
{"compound": "COC(=O)CNC(=O)COc1c(OC)c(OC)cc2oc(-c3cccc(C(=O)Nc4ccc(Cl)cc4)c3)cc(=O)c12", "classAssignment": "active"}
{"compound": "CC1(C)CC[C@]2(C(=O)O)CC[C@]3(C)C(=CCC4[C@@]5(C)C[C@@H](O)[C@@H]6OC(c7cccc(F)c7)OC[C@@]6(C)C5CC[C@]43C)C2C1 (stereo partly drawn)", "classAssignment": "inactive"}
{"compound": "O=C(CN1CCN(c2ncnc3c2cnn3-c2ccccc2)CC1)Nc1ccc(Br)cc1", "classAssignment": "active"}
{"compound": "Cn1cc(-c2cc(N)n3nc(-c4cn(C)c5ccccc45)cc3n2)c2cc(F)ccc21", "classAssignment": "active"}
{"compound": "CCOC(=O)C1=C(N)N(c2ccc(C)cc2)C2=C(C(=O)CC(C)(C)C2)C1c1ccccc1Br (stereo not drawn)", "classAssignment": "inactive"}
{"compound": "COc1ccc2[nH]cc(-c3nc(N)nnc3-c3cn(C)c4ncc(Br)cc34)c2c1", "classAssignment": "inactive"}
{"compound": "CCn1c(SCC(=O)Nc2ccc(-c3nc4ccccc4[nH]3)cc2)nc2ccccc2c1=O", "classAssignment": "active"}
{"compound": "COc1ccc(OC)c(-n2cc(C#N)c(N)c2C(=O)c2ccc(Cl)cc2Cl)c1", "classAssignment": "inactive"}
{"compound": "COc1cc(C2CC(c3ccc(Oc4ccc(Cl)cc4)cc3)=NN2c2nc(-c3ccc(Cl)cc3)c(C#N)c(N3CCOCC3)n2)cc(OC)c1OC (stereo not drawn)", "classAssignment": "inactive"}
{"compound": "O=[N+]([O-])c1cccc(-c2nnc3c(/C=C/c4ccccc4O)nc4ccccc4n23)c1", "classAssignment": "inactive"}
{"compound": "Cn1cc(-c2nnc(N)nc2-c2c[nH]c3ccc(F)cc23)c2cc(Br)cnc21", "classAssignment": "inactive"}
{"compound": "O=C(Nc1ccc(OCc2ccc(F)cc2)cc1)Nc1ccc(Cl)c(C(F)(F)F)c1", "classAssignment": "inactive"}
{"compound": "COc1ccc(C2c3sc4ccc(C)cc4c3Oc3nc[nH]c(=O)c32)cc1 (stereo not drawn)", "classAssignment": "inactive"}
{"compound": "COc1cc(-c2nc3ccc(C)cc3[nH]2)ccc1OCc1nnc(-c2ccccc2Br)o1", "classAssignment": "inactive"}
{"compound": "COc1cc(Nc2nc(O)c(/C=C3\\C=Nc4ccccc43)s2)cc(OC)c1OC", "classAssignment": "active"}

Hey, just so you know, these numbers are from PubChem BioAssay (NCI).
